- Tested on: PC-3 prostate
- TEST DETAILS: NCI tumour cell line growth inhibition, 48 h
OBSERVATION TYPE: TGI

Solved cases below.
Q: Return value of TGI for input CNC(=S)N/N=C(\C)c1cc(OC)ccc1O , no commentary.
Ans: > 100 µM

Q: Return value of TGI for input CCOC(=O)c1nc2cc(C(F)(F)F)ccc2nc1Nc1ccc(OC)c(OC)c1 , no commentary.
Ans: > 100 µM

Q: Return value of TGI for input CCc1nnc(CC)n1-n1c(Cc2ccccc2)n[nH]c1=O , no commentary.
Ans: > 100 µM

Q: Return value of TGI for input CCCN1C(=O)/C(=C/c2cccc(O)c2)SC1=Nc1ccccc1 , no commentary.
Ans: 33.1 µM

List reported TGI for each of these compounds:
1. CC1CC2=C(C1)C(C1(C)C(=O)CC3C(C1=O)C3(C)C)C(C)C2=O (stereo not given)
2. C=CS(=O)(=O)c1c2cc(OC)ccc2nc2ccc(OC)cc12
3. COc1ccc2nc(C)cc(NCCCCCCCCCNc3cc(C)nc4ccc(OC)cc34)c2c1
4. COP(=O)(OC)C(C)(C)NC(=O)NC(F)(F)F
5. Cc1ccccc1C1=C/C(=C(\SS/C(C(=O)c2ccc(OCC(=O)O)c(Cl)c2Cl)=C2\C=C(c3ccccc3C)SS2)C(=O)c2ccc(OCC(=O)O)c(Cl)c2Cl)SS1
6. N#Cc1c(-c2ccc(Cl)cc2)cc(-c2ccc(Nc3ccnc4cc(C(F)(F)F)ccc34)cc2)nc1N

Ans:
> 100 µM
23.3 µM
5.01 µM
> 100 µM
27.4 µM
> 100 µM
